- TARGET DESC: T1, SERF (Small ERDK-Rich Factor) (Saccharomyces cerevisiae, UniProt Q3E7B7)
- T1 sequence: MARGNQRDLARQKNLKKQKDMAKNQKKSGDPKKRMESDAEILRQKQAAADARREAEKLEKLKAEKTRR
- EXPERIMENT DESCRIPTION: fluorescence anisotropy; 1:1 model, KD,app; Anisotropy buffer not given in the material; NMR at 27 C; native IM-MS in 100 mM ammonium acetate pH 7.5
- CONDITION DETAILS: protein: recombinant; tags: His6-SUMO removed by ULP1 (scarless); hairpin with UCU bulge and hexanucleotide loop
REPORTED METRIC: pKd
One number for each entry, as −log10 of the molar value.

Exercise: Read off the recorded pKd for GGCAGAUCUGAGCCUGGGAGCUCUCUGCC (structured_RNA) [FAM-TAR]
Key: 6.17
